Recorded values, source PubChem BioAssay (NCI).

- Test system: COLO 205 colon
- assay-notes: NCI tumour cell line growth inhibition, 48 h
Numbered stars: 1 amine (or outer) side, 2 acyl side, 3 side chain; on linkers, the order of the positions; unused ones are H or OH. Bridge positions count the residues as written; N and C are the ends. Square brackets hold non-standard residues; d marks the D form. Peptide text beside a SMILES is read from it. I, II: the chains in the order shown. Actinocin(1to9) = Cc1c2oc3c(C)ccc(C(=O)[*:2])c3nc-2c(C(=O)[*:1])c(N)c1=O; NMeV = CN[CH](C(=O)O)C(C)C; Sar = CNCC(=O)O
Given measured TGI, output TRUE if it is greater than or equal to 20 µM and FALSE if not.

{"compound": "O[C@H]1[C@@H]2OC[C@@H](O)[C@H](OCc3ccccc3)[C@@](COCc3ccccc3)(O2)[C@@H]1OCc1ccccc1", "class": "TRUE"}
{"compound": "CN1CCN(Cc2ccc(NC(=O)c3[nH]ncc3Nc3cc(OC4CCCC4)ncn3)cc2)CC1", "class": "FALSE"}
{"compound": "Cc1ccc(S(=O)(=O)N/N=C2\\CC3C4CCC3C2C4)cc1 (centres undefined)", "class": "TRUE"}
{"compound": "CCCNC(=O)c1cc(NC(=O)c2cc(NC(=O)CCS(=O)(=O)OC)cn2C)cn1C", "class": "TRUE"}
{"compound": "Nc1nc(N)c(-c2ccc(Cl)cc2)c(/C=C/c2ccc([N+](=O)[O-])cc2)n1", "class": "TRUE"}
{"compound": "Cc1ccccc1NC(=O)CC(=O)n1nc(-c2ccccc2)c(N=Nc2ccc([N+](=O)[O-])cc2)c1-c1ccccc1", "class": "TRUE"}
{"compound": "Nc1ncnc2c1ncn2C1OC(C(=O)OCCO)C(O)C1O (centres undefined)", "class": "TRUE"}
{"compound": "CC(=O)Nc1nc(C)c(-c2cc3c(c(S(C)(=O)=O)c2)C(=O)N([C@@H](C)C2CC2)C3)s1", "class": "TRUE"}
{"compound": "O=C1C=C(OCC=C(Cl)Cl)C(=O)c2ccccc21", "class": "FALSE"}
{"compound": "C1COCCOP2(N3CC3)=NP(N3CC3)(=NP(N3CC3)(N3CC3)=N2)OCCOCCO1 (centres undefined)", "class": "TRUE"}
{"compound": "CC(=O)O[C@@H]1CN(S(=O)(=O)c2ccc(C)cc2)C[C@@H]1C1CCCCC1", "class": "TRUE"}
{"compound": "COc1cc2c(cc1OC)C(=O)N1CCCC1C(=O)S2 (centres undefined)", "class": "TRUE"}
{"compound": "CCc1cccc(CC)c1NC(=O)C1=CNC(C)=C(C(=O)Nc2c(CC)cccc2CC)C1c1ccc(O)c(OC)c1 (centres undefined)", "class": "TRUE"}
{"compound": "NC(N)=N/N=C/c1ccc(Br)cc1", "class": "FALSE"}
{"compound": "O=C1Cc2c([nH]c3cc(Br)ccc23)-c2ccccc2N1", "class": "TRUE"}
{"compound": "COc1cc(OC)c2c(c1Cl)O[C@]1(C2=O)C(OCc2ccccc2)=CC(=O)C[C@H]1C", "class": "FALSE"}
{"compound": "CCOC(=O)c1c(CN2CCOCC2)n(Cc2ccccc2)c2c1cc(O)c1nc(C)c(C)nc12", "class": "TRUE"}
{"compound": "O=c1[nH]c(Br)nc2c(N3CCCCC3)c[nH]c12", "class": "TRUE"}
{"compound": "COc1ccccc1NC1=NCC(C)S1 (centres undefined)", "class": "TRUE"}
{"compound": "CC(C)CC1NC(=O)C(C(C)C)NC(=O)CC(C)COC(=O)C(CC(C)C)N(C)C(=O)C(C(C)C)NC(=O)C(C(C)C)OC1=O (centres undefined)", "class": "TRUE"}
{"compound": "O=c1ccc2nc3ccc(O)cc3oc-2c1", "class": "TRUE"}
{"compound": "CC(=O)OC1(C#N)CC2OC1C1NC21 (centres undefined)", "class": "TRUE"}
{"compound": "NC(N)=N/N=C/c1c(-c2ccc(Cl)cc2)nc2n1CCS2", "class": "FALSE"}
{"compound": "Cc1ccc(C(=O)C(C)N)cc1C (centres undefined)", "class": "TRUE"}
{"compound": "N#CCCN(CCC#N)c1ccc(/C=C2\\N=C(c3ccccc3)N(c3ccccc3)C2=O)cc1", "class": "TRUE"}
{"compound": "CN1CCN(Cc2ccc(NC(=O)c3cncc(C#Cc4ncc5ccccn45)c3)cc2C(F)(F)F)CC1", "class": "FALSE"}
{"compound": "CCCCCCC(=O)CC(=O)C(=O)Nc1ccccc1C", "class": "TRUE"}
{"compound": "Cc1cn(C2CC(O)C(Cn3nncc3Cn3ccc(=O)[nH]c3=O)O2)c(=O)[nH]c1=O (centres undefined)", "class": "TRUE"}
{"compound": "Cc1ccc(S(=O)(=O)NC(=O)NCC(=O)O)cc1", "class": "TRUE"}
{"compound": "Nc1nc(Cl)c2ncn(Cc3ccc(-c4ccc(CCl)cc4)cc3)c2n1", "class": "TRUE"}
{"compound": "CC(C)[Si](OC1=CCC[C@H]2NC(=O)[C@@H](Cc3ccc([N+](=O)[O-])cc3)[C@@]12C)(C(C)C)C(C)C", "class": "FALSE"}
{"compound": "C(=NCCN=Cc1cccc2ccccc12)c1cccc2ccccc12", "class": "TRUE"}
{"compound": "COc1cc(N(CCC#N)CCC#N)ccc1/C(N=Nc1cccc(C)c1)=N\\NC(=O)c1ccc(C)cc1", "class": "TRUE"}
{"compound": "CCOc1ccccc1NC(=O)C(=O)c1c(O)c2ccc(O)cc2oc1=O", "class": "TRUE"}
{"compound": "COC(=O)CCc1c(/C=C2\\N=C(c3ccc[nH]3)C=C2OC)[nH]c(C)c1C(=O)OCc1ccccc1", "class": "FALSE"}
{"compound": "O=C(CN1CCN(c2ccccn2)CC1)Nc1ccc(Cl)cc1C(=O)c1ccccc1Cl", "class": "TRUE"}
{"compound": "CCC(C)C1NC(=O)C(NC(=O)c2c3nc4c(C(=O)NC5C(=O)NC(C(C)C)C(=O)N6CCCC6C(=O)N(C)CC(=O)N(C)C(C(C)C)C(=O)OC5C)ccc(C)c4oc-3c(C)c(=O)c2N)C(C)OC(=O)C(C(C)C)N(C)C(=O)CN(C)C(=O)C2CCCN2C1=O (centres undefined) (I: TIP[Sar][NMeV] / II: TVP[Sar][NMeV]; ester I:1-I:C, II:1-II:C; linker I:N-II:N via Actinocin(1to9); configuration not given here)", "class": "FALSE"}
{"compound": "CC1=C(C(=O)NCc2ccccc2)C(c2ccccc2O)C(C(=O)NCc2ccccc2)=C(C)N1", "class": "TRUE"}
